test: E. coli DRC41 culture turbidity changes, primary screen, E. coli filamentation inducer project, strain DRC41, OD650, 48 h (AID 1152);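 note: E. coli MC1000 strain DRC41 lacking acrAB efflux pump and sulA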; conditions: E. coli DRC41 (acrAB sulA), higher = more signal, called active from +8 up or from −8 down
MEASURE NAME: z-score
Enter the number alone.

NCCCCCNC(=O)[C@H]1C[C@H]2C(=O)N[C@@H](Cc3ccccc3)C(=O)N2[C@H]1c1ccc(O)cc1 : 0.097
C=CCNC(=O)[C@@H]1[C@H]2C(=O)O[C@H](c3ccccc3)[C@H](c3ccccc3)N2[C@H](c2ccc(O)cc2)[C@@]12C(=O)Nc1ccc(C#CCC(C(=O)OC)C(=O)OC)cc12 : -0.482
COc1ccc([Si](C)(C)[C@H]2[C@H](CCO)O[C@@]3(C(=O)N(Cc4ccccc4)c4ccc(N5C(=O)c6ccccc6Oc6ccccc65)cc43)[C@@H]2C)cc1 : 0.503
CC(C)c1ccc(NN2C(C(O)Cc3ccccc3)C=CC3C(=O)N(c4ccccc4)C(=O)C32)cc1 (stereo not given) : -1.76
COCCCNC(=O)[C@@H]1c2ccccc2C(=O)N(C2Cc3ccccc3C2)[C@H]1c1ccc(CO)cc1 : 0.748
O=C(N1CCOCC1)[C@@]1(CCS(=O)(=O)c2ccccc2)N=C(c2ccc(OCCCO)cc2)O[C@H]1c1ccccc1 : 0.276
CN(C)C(=O)[C@@]1(CCC(=O)OC(C)(C)C)N=C(c2ccc(OCCCO)cc2)O[C@H]1c1ccccc1CN=[N+]=[N-] : 0.476
COCCOC(=O)N1C(=O)[C@@]2(c3cc(C#CCNC(N)=O)ccc31)[C@H](c1ccc(OCCO)cc1)N1[C@H](c3ccccc3)[C@H](c3ccccc3)OC(=O)[C@H]1[C@@H]2C(N)=O : 0.336
C[C@]1(C(=O)NCC(F)(F)F)c2ccccc2C(=O)N(Cc2ccccc2)[C@H]1c1ccc(CO)cc1 : 0.588
O=C1O[C@H](c2ccccc2)[C@H](c2ccccc2)N2[C@H]1[C@@H](C(=O)N1CCCCCCC1)[C@]1(C(=O)Nc3ccc(C#CC4(O)CCCCCC4)cc31)[C@H]2c1ccc(O)cc1 : 0.507

Item COCCOC(=O)N1C(=O)[C@@]2(c3ccccc31)[C@H](c1ccccc1OCCO)N1[C@H](c3ccccc3)[C@H](c3ccccc3)OC(=O)[C@H]1[C@@H]2C(N)=O has what recorded z-score?
-0.714

C=C(CCCC)C(=O)CC[C@@H](OC(=O)c1cccnc1)c1ccc(OCCO)cc1 , same question.
-0.704

Okay, and COC(=O)[C@@]1(Cc2ccccc2)[C@H]2c3cc(C(=O)N4CCCC4)n(CCSCCO)c3C[C@H]2CN1C(=O)c1ccccc1 ?
-1.88

Try this compound next: CCC(CC)C(O)C1C=CC2C(=O)N(c3ccccc3)C(=O)C2N1Nc1ccc([N+](=O)[O-])cc1 (stereo not given)
-0.639

Quick one: CC(C)C(CO)N1C(=O)[C@@H]2[C@H]3C(=O)OCC=C[C@H]3OC23C=CCN(C(C)(C)C)C(=O)[C@@H]13 (stereo not given in full)
-0.875

---

assay: inhibitors of hydroxyurea-induced Chk1 phosphorylation, primary screen, imaging, HeLa, phospho-Chk1 nuclear intensity (AID 1187); details: hydroxyurea-induced phospho-Chk1 immunofluorescence imaging, higher = more signal; note: test concentration not given here
The source made the active and inactive calls. The rule behind the calls is not given here.
MEASURE NAME: z-score

Take a look at these entries with their results.
CCOC(=O)C1=CCN(S(=O)(=O)c2ccc(C)cc2)C1c1ccccc1 (configuration not stated) : 0.346 (inactive)
COCCOC(=O)N1C(=O)[C@@]2(c3cc(C#CCNC(N)=O)ccc31)[C@H](c1ccc(OCCO)cc1)N1[C@H](c3ccccc3)[C@H](c3ccccc3)OC(=O)[C@H]1[C@@H]2C(N)=O : 0.189 (inactive)
Cc1ccc(C(C)CC(O)C2C=CC3C(=O)N(c4ccccc4)C(=O)C3N2Nc2ccc(C#N)cc2)o1 (configuration not stated) : 0.222 (inactive)
Cc1ccc(S[C@]2(C(=O)NC(C)C)CC(=O)N(Cc3ccccc3Cl)[C@@H]2c2ccc(CO)cc2)cc1 : -0.0912 (inactive)
[N-]=[N+]=NCc1ccccc1C[C@@]1(C(=O)N2CCCCC2)N=C(c2ccc(OCCCO)cc2)O[C@@H]1c1ccccc1CN=[N+]=[N-] : -0.903 (inactive)

Which z-score is listed for O=C(NCCN1CCOCC1)[C@@H]1c2ccccc2C(=O)N(Cc2ccccc2)[C@H]1c1ccc(CO)cc1 ?
-0.974 (inactive)

For COc1cc(CO)cc(I)c1O[C@H]1C=C(C(=O)NCCO)C[C@@H](NCC2CCCCC2)[C@@H]1O then?
-0.873 (inactive)

---

target: E3 ubiquitin-protein ligase XIAP (Homo sapiens) (UniProt P98170); assay: XIAP binders, primary screen, biophysical, small-molecule microarray, fluorescence 635 nm (AID 1181); conditions: small-molecule microarray binding, higher = more signal;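 note: score merges 667 nm emission and signal to noise over triplicate slides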
Sequence (P98170 whole entry, looked up): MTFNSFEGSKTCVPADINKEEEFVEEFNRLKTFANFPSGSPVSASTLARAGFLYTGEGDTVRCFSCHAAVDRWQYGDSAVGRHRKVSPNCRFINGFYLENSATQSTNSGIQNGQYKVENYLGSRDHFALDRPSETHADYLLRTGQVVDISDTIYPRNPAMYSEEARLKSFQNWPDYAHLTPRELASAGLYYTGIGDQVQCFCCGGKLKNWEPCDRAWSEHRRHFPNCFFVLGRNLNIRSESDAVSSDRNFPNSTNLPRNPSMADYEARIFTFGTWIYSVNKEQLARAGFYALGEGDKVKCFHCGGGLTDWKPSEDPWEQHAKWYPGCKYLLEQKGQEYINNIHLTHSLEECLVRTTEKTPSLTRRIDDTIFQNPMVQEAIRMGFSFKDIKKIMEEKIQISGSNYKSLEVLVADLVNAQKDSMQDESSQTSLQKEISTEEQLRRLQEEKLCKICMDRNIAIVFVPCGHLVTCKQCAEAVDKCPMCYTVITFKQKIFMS
Catalogue of molecules with associated composite z-score
Give the figure by itself; no unit, no explanation.

NC(=O)[C@H]1[C@@H]2C(=O)O[C@@H](c3ccccc3)[C@@H](c3ccccc3)N2[C@@H](c2ccc(O)cc2)[C@]12C(=O)Nc1ccccc12 : -0.0559

Could you tell me which composite z-score is on file for C=CCN1C(=O)[C@]2(O[C@H](CCO)[C@@H]([Si](C)(C)c3ccc(OC)cc3)[C@@H]2C)c2cc(NC(=O)c3ccc(OC)cc3)ccc21 ?
0.401

And COC(=O)[C@@]1(Cc2ccc(OC)cc2)[C@H]2c3cc(C(=O)N4CCCC4)n(Cc4ccc(OC(F)(F)F)cc4)c3C[C@H]2CN1C(=O)c1ccccc1 ?
0.0479

---

biological target: Albumin (Bos taurus) (UniProt P02769); assay: bovine serum albumin binders on microarray, profiling panel, artefact control for SMM control protein annotation, biochemical, small-molecule microarray, Alexa647 label, 635/667 nm fluorescence (AID 1118); conditions: BSA-A647 binding, fluorescence 635 nm, higher = more signal;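 note: score merges 667 nm emission intensity and signal-to-noise per printed compound spot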
Sequence (P02769 whole entry, looked up): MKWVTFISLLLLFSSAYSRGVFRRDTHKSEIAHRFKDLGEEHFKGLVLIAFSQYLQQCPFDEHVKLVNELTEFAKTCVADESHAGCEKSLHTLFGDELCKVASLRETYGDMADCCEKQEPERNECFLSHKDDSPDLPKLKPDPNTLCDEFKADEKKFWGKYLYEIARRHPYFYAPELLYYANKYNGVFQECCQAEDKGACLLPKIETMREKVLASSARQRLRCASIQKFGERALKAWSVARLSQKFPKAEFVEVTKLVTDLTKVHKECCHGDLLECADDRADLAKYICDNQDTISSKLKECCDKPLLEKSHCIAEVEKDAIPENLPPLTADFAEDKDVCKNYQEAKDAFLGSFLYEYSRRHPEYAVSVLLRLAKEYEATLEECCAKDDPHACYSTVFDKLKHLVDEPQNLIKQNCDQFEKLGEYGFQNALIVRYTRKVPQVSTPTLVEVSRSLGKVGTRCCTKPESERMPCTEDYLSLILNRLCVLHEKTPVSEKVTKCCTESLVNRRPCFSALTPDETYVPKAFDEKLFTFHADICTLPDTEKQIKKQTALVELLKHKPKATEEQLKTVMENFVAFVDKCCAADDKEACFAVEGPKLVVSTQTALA
MEASURE NAME: composite z-score
Please give only the number in your answer, with no unit.

Before answering, review these 2 worked examples.
O=C1O[C@H](c2ccccc2)[C@H](c2ccccc2)N2[C@H]1[C@@H](C(=O)O)[C@]1(C(=O)Nc3ccc(C#CC4(O)CCCCCC4)cc31)[C@H]2c1ccc(O)cc1 : 0.143
COc1ccc([Si](C)(C)[C@H]2[C@H](CCO)O[C@@]3(C(=O)N(Cc4ccccc4)c4ccc(N5C(=O)c6ccccc6Oc6ccccc65)cc43)[C@@H]2C)cc1 : 0.467

Now let's try a different one.
Could you tell me which composite z-score is on file for COC(=O)C(CC#Cc1ccc2c(c1)[C@]1(C(=O)N2)[C@H](c2ccc(OCCO)cc2)N2[C@H](c3ccccc3)[C@H](c3ccccc3)OC(=O)[C@H]2[C@@H]1C(=O)N1CCN(c2ncccn2)CC1)C(=O)OC ?
0.621

---

tested on: Noggin (protein binding on small-molecule microarray); assay: Noggin binders on small-molecule microarray, primary screen, biochemical, 635/667 nm fluorescence (AID 1095); details: 635 nm fluorescence, higher = more signal;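 note: score merges 667 nm feature fluorescence with signal to noise over triplicate slides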
Each record here notes measured composite z-score.
Answer as a number with no unit attached.

COc1ccc([Si](C)(C)[C@@H]2[C@@H](CCn3cc([C@H](O)c4ccccc4)nn3)O[C@]3(C(=O)N(Cc4cccc(N5C(=O)c6cccc7cccc5c67)c4)c4ccccc43)[C@H]2C)cc1 : -0.319
COC(=O)[C@@]1(Cc2ccccc2CN=[N+]=[N-])N=C(c2ccc(OCCCO)cc2)O[C@H]1c1ccccc1 : 0.151
COc1cc(NN2C(C(O)c3cc(OC)c(OC)c(OC)c3)C=CC3C(=O)N(c4ccccc4)C(=O)C32)cc(OC)c1OC (configuration not stated) : 1.34
COC(=O)[C@@]1(Cc2ccc(F)cc2)[C@H]2c3cc(C(=O)N(C)C)n(Cc4c(CO)[nH]cc(C)c4=O)c3C[C@H]2CN1C(=O)c1ccccc1 : -0.115
CCOC(=O)C[C@H]1[C@H](OC(=O)c2ccccc2-c2ccccc2)[C@@H](NC(=O)c2ccccc2)c2cc(OCCCO)ccc2N1C(=O)c1ccccc1 : 0.169

Using the record for CN(C)CCCCCCNC(=O)[C@@H]1C[C@@H]2C(=O)N[C@@H](CCCCN)C(=O)N2[C@@H]1c1ccc(O)cc1 , report its composite z-score.
2.25

[N-]=[N+]=Nc1ccccc1C[C@@]1(C(=O)O)N=C(c2ccc(OCCCO)cc2)O[C@@H]1c1ccccc1N=[N+]=[N-] ?
-0.414

---

experiment: small-molecule binders of probe aNOTCH3, primary screen, biochemical, small-molecule microarray, 635/667 nm fluorescence (AID 1120); conditions: higher = more signal;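 note: probe is a biotin-tagged antibody raised against NOTCH3 rather than NOTCH3 protein; score merges spot fluorescence near 667 nm with spot signal to noise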
MEASURE NAME: composite z-score

Sample records with composite z-score:
C=CCNC(=O)[C@@H]1[C@H]2C(=O)O[C@H](c3ccccc3)[C@H](c3ccccc3)N2[C@H](c2ccc(O)cc2)[C@@]12C(=O)N(C(=O)OCCOC)c1ccc(C#CCCO)cc12 : 0.364
O=C(N1CCOCC1)[C@@]1(CCS(=O)(=O)c2ccccc2)N=C(c2ccc(OCCCO)cc2)O[C@H]1c1ccccc1 : 0.211
O=C1O[C@H](c2ccccc2)[C@H](c2ccccc2)N2[C@H]1[C@@H](C(=O)O)[C@]1(C(=O)Nc3ccc(C#CC4(O)CCCCCC4)cc31)[C@H]2c1ccc(O)cc1 : -0.15
CO[C@H]1O[C@H](CO)[C@@H](OC(=O)CCc2ccccc2)[C@H](OC(=O)c2cc3ccccc3[nH]2)[C@H]1OC(=O)c1cc2ccccc2[nH]1 : -0.0284
COC(=O)[C@@]1(Cc2ccc(F)cc2)[C@H]2c3cc(C(=O)N(C)C)n(Cc4c(CO)[nH]cc(C)c4=O)c3C[C@H]2CN1C(=O)c1ccccc1 : 0.26

Form field: reported composite z-score of CC(C)C[C@@H]1NC(=O)[C@@H]2C[C@H](C(=O)NCCCCCC[N+](C)(C)C)[C@H](c3cccc(OCCO)c3)N2C1=O
-0.0311
